From: the supplement of paper PMC10567573

B1: PPEF2 (parent)
chain: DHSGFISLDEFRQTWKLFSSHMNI

# Variants of: B1
# MEASUREMENT NOTES: protein stability index of a GFP-peptide fusion (GPS, HEK-293T) (PSI 1-6); higher = more stable;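 note: lentivirally expressed fusions sorted by FACS into six bins by GFP to DsRed ratio, PSI derived from sequencing read proportions per bin multiplied by bin number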
# CONDITION INFO: c terminus: a fixed tail appended
Quick rule for you: protein stability index at 2 or higher means yes (1), lower means no (0).

variant_label=M22C assigned_category="yes (1)"
variant_label=L17P assigned_category="no (0)"
variant_label=M22F assigned_category="yes (1)"
variant_label=F5K assigned_category="no (0)"
variant_label=K16E assigned_category="no (0)"
variant_label=D9Q assigned_category="yes (1)"
variant_label=M22P assigned_category="yes (1)"
variant_label=D1W assigned_category="yes (1)"
variant_label=G4D assigned_category="no (0)"
variant_label=I24T assigned_category="no (0)"
variant_label=L8E assigned_category="no (0)"
variant_label=S20R assigned_category="yes (1)"
variant_label=L8T assigned_category="yes (1)"
variant_label=G4F assigned_category="yes (1)"
variant_label=R12D assigned_category="yes (1)"
variant_label=F11G assigned_category="yes (1)"
variant_label=L8F assigned_category="yes (1)"
variant_label=N23P assigned_category="no (0)"
variant_label=S7P assigned_category="no (0)"
variant_label=Q13D assigned_category="no (0)"
variant_label=W15M assigned_category="yes (1)"
variant_label=S19T assigned_category="yes (1)"
variant_label=N23D assigned_category="no (0)"
variant_label=D9L assigned_category="yes (1)"
variant_label=F18V assigned_category="no (0)"
variant_label=G4C assigned_category="yes (1)"
variant_label=F5H assigned_category="no (0)"
variant_label=I24S assigned_category="no (0)"
variant_label=L8D assigned_category="yes (1)"
variant_label=Q13H assigned_category="no (0)"
variant_label=T14D assigned_category="no (0)"
variant_label=E10I assigned_category="no (0)"
